These measurements were taken from patent US20230066011A1.

# SUBJECT OF TEST: CLK1 (Homo sapiens, UniProt P49759)
# Construct: purchased DiscoverX Corp. (ScanMAX Kinase analysis panel, service)
# Sequence (P49759 whole entry): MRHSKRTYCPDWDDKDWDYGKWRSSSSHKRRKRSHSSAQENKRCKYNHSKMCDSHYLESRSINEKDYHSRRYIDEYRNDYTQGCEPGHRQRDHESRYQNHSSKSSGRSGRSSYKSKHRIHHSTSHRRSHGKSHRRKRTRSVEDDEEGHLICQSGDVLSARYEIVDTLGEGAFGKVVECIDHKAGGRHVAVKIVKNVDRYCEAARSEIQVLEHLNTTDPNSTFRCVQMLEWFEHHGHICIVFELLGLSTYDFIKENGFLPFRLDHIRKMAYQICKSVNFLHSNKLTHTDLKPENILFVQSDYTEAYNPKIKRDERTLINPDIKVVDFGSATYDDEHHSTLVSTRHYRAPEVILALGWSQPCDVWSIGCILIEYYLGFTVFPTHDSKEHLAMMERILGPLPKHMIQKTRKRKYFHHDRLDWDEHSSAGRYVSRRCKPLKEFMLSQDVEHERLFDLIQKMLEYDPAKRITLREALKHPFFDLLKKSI
# ASSAY PROCEDURE: ScanMAX Kinase analysis panel, CLK1
# Assay type: binding
# STATED CONDITIONS: 1 μM in DMSO; <35% considered inhibitory; read-out: percent control (% control), CLK1
MEASURE NAME: remaining binding at 1 µM (%)

[
  {
    "COMPOUND": "CNc1nc(Nc2ccc(C(=O)N3CCC(N4CCOCC4)CC3)c3c2OCCO3)nc2[nH]cc(C(F)(F)F)c12 [Example 238]",
    "SUBJECT OF TEST": "CLK1 (Homo sapiens, UniProt P49759)",
    "MEASURE NAME": "remaining binding at 1 µM",
    "MEASURED NUMBER": 16
  },
  {
    "COMPOUND": "C=CCNc1nc(Nc2ccc(S(=O)(=O)N3CCC(N4CCOCC4)CC3)cc2OC)nc2[nH]cc(C#N)c12 [Example 361]",
    "SUBJECT OF TEST": "CLK1 (Homo sapiens, UniProt P49759)",
    "MEASURE NAME": "remaining binding at 1 µM",
    "MEASURED NUMBER": 2.4
  },
  {
    "COMPOUND": "CNc1nc(Nc2ccc(S(=O)(=O)N3CCC(N4CCOCC4)CC3)cc2OC)nc2[nH]cc(C(F)(F)F)c12 [Example 157, 2,2,2-trifluoroacetate]",
    "SUBJECT OF TEST": "CLK1 (Homo sapiens, UniProt P49759)",
    "MEASURE NAME": "remaining binding at 1 µM",
    "MEASURED NUMBER": 6.7
  },
  {
    "COMPOUND": "CNc1nc(Nc2ccc(P3(=O)CCN(C4CC4)CC3)cc2OC)nc2[nH]cc(C(F)(F)F)c12 [Example 411]",
    "SUBJECT OF TEST": "CLK1 (Homo sapiens, UniProt P49759)",
    "MEASURE NAME": "remaining binding at 1 µM",
    "MEASURED NUMBER": 7.2
  },
  {
    "COMPOUND": "CCNc1nc(Nc2ccc(S(=O)(=O)N3CCC(N4CCOCC4)CC3)cc2OC)nc2[nH]cc(C(F)(F)F)c12 [Example 158, 2,2,2-trifluoroacetate]",
    "SUBJECT OF TEST": "CLK1 (Homo sapiens, UniProt P49759)",
    "MEASURE NAME": "remaining binding at 1 µM",
    "MEASURED NUMBER": 1
  },
  {
    "COMPOUND": "O=C(c1ccc(Nc2nc(C3CC3)c3c(C(F)(F)F)c[nH]c3n2)c2c1OCCO2)N1CCC(N2CCOCC2)CC1 [Example 228]",
    "SUBJECT OF TEST": "CLK1 (Homo sapiens, UniProt P49759)",
    "MEASURE NAME": "remaining binding at 1 µM",
    "MEASURED NUMBER": 6.1
  },
  {
    "COMPOUND": "CCCNc1nc(Nc2ccc(S(=O)(=O)N3CCC(N4CCOCC4)CC3)cc2OC)nc2[nH]cc(C(F)(F)F)c12 [Example 161]",
    "SUBJECT OF TEST": "CLK1 (Homo sapiens, UniProt P49759)",
    "MEASURE NAME": "remaining binding at 1 µM",
    "MEASURED NUMBER": 5.5
  }
]

----------
# SUBJECT OF TEST: LRRK2 (G2019S) (Homo sapiens, UniProt Q5S007, G2019S)
# Sequence (Q5S007 970-2527 G2019S limits assumed): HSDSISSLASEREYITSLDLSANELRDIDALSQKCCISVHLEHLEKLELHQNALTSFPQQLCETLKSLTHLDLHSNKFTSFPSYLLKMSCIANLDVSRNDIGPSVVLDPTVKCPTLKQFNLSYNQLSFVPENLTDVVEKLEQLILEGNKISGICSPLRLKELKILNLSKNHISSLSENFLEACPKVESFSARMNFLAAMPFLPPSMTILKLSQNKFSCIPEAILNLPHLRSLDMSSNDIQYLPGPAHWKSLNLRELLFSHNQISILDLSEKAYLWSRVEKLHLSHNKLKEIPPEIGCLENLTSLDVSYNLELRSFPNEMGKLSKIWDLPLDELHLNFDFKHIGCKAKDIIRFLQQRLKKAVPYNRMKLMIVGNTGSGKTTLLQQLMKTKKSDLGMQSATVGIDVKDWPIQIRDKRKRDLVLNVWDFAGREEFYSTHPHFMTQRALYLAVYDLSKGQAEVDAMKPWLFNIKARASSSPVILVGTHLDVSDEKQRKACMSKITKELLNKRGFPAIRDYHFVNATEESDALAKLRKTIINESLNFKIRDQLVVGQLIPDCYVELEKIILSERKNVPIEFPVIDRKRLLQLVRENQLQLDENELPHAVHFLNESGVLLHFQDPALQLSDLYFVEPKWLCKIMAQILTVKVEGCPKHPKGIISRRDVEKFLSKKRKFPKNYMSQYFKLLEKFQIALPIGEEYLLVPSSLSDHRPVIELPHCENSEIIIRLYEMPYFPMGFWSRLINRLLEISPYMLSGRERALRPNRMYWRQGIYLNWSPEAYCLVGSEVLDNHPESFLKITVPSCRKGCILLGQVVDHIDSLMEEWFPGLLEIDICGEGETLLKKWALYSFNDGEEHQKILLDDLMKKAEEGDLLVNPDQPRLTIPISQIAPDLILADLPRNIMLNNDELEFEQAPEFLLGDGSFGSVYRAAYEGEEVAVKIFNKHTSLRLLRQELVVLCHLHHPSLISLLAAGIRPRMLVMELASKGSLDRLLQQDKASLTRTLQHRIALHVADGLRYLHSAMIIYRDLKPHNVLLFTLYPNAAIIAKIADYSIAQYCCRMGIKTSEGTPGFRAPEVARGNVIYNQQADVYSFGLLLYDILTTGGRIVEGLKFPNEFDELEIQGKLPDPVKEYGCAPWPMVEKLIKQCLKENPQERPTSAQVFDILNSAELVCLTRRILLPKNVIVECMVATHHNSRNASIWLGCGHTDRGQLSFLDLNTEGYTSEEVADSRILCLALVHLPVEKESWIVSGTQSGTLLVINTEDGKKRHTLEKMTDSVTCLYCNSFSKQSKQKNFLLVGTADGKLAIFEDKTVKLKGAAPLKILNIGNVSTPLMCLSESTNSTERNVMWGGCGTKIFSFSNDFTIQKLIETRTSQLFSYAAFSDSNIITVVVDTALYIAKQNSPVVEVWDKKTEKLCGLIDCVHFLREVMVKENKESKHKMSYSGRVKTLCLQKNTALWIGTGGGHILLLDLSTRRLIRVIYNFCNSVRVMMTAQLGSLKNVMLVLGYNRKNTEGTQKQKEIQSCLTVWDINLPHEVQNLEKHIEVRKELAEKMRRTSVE
# ASSAY PROCEDURE: LRRK2 G2019S enzyme inhibition, ADP-Glo kinase assay
# Format: biochemical
# Set-up: purchased SignalChem L10-12GG
# STATED CONDITIONS: ATP 25 μM
pIC50: −log10 of the molar value.
Entries annotated with measured pIC50

[
  {
    "COMPOUND": "N#Cc1c[nH]c2nc(Nc3ccc(C(=O)N4CCOCC4)c4c3OCCO4)nc(NC3COC3)c12 [Example 135]",
    "pIC50": "6.00 to 6.52"
  },
  {
    "COMPOUND": "CCCNc1nc(Nc2ccc(S(C)(=O)=O)cc2OC)nc2[nH]cc(C#N)c12 [Example 99]",
    "pIC50": "6.52 to 7.00"
  },
  {
    "COMPOUND": "COc1cc(S(C)(=O)=O)ccc1Nc1nc(NC2CC2)c2c(C#N)c[nH]c2n1 [Example 104]",
    "pIC50": "> 7.00"
  },
  {
    "COMPOUND": "O=C(c1ccc(Nc2nc(NC3CCC3)c3c(C(F)(F)F)c[nH]c3n2)c2c1OCCO2)N1CCC(N2CCOCC2)CC1 [Example 378]",
    "pIC50": "> 7.00"
  },
  {
    "COMPOUND": "COc1cc(S(=O)(=O)N2CCC(N3CCOCC3)CC2)ccc1Nc1nc(NCC2CCC2)c2cc[nH]c2n1 [Example 38, 2,2,2-trifluoroacetate]",
    "pIC50": "> 7.00"
  },
  {
    "COMPOUND": "COc1cc(S(=O)(=O)N2CCOCC2)ccc1Nc1nc(NCC(C)C)c2cc[nH]c2n1 [Example 10]",
    "pIC50": "> 7.00"
  },
  {
    "COMPOUND": "CC(C)Nc1nc(Nc2ccc(C(=O)N3CCOCC3)c3c2OCCO3)nc2[nH]ccc12 [Example 45, 2,2,2-trifluoroacetate]",
    "pIC50": "> 7.00"
  },
  {
    "COMPOUND": "COCCNc1nc(Nc2ccc(S(C)(=O)=O)cc2OC)nc2[nH]cc(C(F)(F)F)c12 [Example 171]",
    "pIC50": "> 7.00"
  },
  {
    "COMPOUND": "C=CCNc1nc(Nc2ccc(S(=O)(=O)N3CCC(N4CCOCC4)CC3)cc2OC)nc2[nH]cc(C#N)c12 [Example 361]",
    "pIC50": "> 7.00"
  },
  {
    "COMPOUND": "CCNc1nc(Nc2ccc(C(=O)N3CCC(N4CCOCC4)CC3)c3c2OCC3)nc2[nH]cc(C(F)(F)F)c12 [Example 438]",
    "pIC50": "> 7.00"
  },
  {
    "COMPOUND": "O=C(c1ccc(Nc2nc(C3CC3)c3c(C(F)(F)F)c[nH]c3n2)c2c1OCCO2)N1CCC(N2CCOCC2)CC1 [Example 228]",
    "pIC50": "> 7.00"
  },
  {
    "COMPOUND": "COc1cc(S(=O)(=O)N2CCC(N3CCOCC3)CC2)ccc1Nc1nc(NC(C)C)c2c(C(F)(F)F)c[nH]c2n1 [Example 165]",
    "pIC50": "6.52 to 7.00"
  },
  {
    "COMPOUND": "COc1cc(S(C)(=O)=O)ccc1Nc1nc(NC2CCCCC2)c2cc[nH]c2n1 [Example 27, 2,2,2-trifluoroacetate]",
    "pIC50": "> 7.00"
  },
  {
    "COMPOUND": "COc1cc(S(=O)(=O)N2CCOCC2)ccc1Nc1nc(NC2CCC2)c2c(C(F)(F)F)c[nH]c2n1 [Example 377]",
    "pIC50": "6.52 to 7.00"
  },
  {
    "COMPOUND": "N#Cc1c[nH]c2nc(Nc3ccc(C(=O)N4CCC(N5CCOCC5)CC4)c4c3OCC4)nc(NC3CCCCC3)c12 [Example 322]",
    "pIC50": "> 7.00"
  }
]

----------
# SUBJECT OF TEST: human GST-CLK1 (Homo sapiens)
# Sequence (P49759 129-484 limits assumed): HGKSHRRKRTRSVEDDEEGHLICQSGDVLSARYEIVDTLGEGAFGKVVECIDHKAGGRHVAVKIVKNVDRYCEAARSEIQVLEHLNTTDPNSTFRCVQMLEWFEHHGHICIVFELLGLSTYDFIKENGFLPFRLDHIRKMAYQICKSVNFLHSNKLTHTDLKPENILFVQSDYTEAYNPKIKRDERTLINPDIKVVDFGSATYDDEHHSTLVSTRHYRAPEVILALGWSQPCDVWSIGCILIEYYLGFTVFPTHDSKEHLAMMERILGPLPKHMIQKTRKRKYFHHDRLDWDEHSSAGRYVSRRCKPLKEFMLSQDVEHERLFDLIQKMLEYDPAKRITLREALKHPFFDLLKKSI
MEASURE NAME: IC50

[
  {
    "COMPOUND": "N#Cc1c[nH]c2nc(Nc3ccc(C(=O)N4CCN(C5COC5)CC4)c4c3OCCO4)nc(NC3CCCCC3)c12 [Example 144]",
    "RESULT": "101 to 300 nM"
  },
  {
    "COMPOUND": "CC[C@H](C)Nc1nc(Nc2ccc(P3(=O)CCN(C4COC4)CC3)cc2OC)nc2[nH]cc(C#N)c12 [Example 297]",
    "RESULT": "101 to 300 nM"
  },
  {
    "COMPOUND": "O=C(c1ccc(Nc2nc(NCC3CCCC3)c3c(C(F)(F)F)c[nH]c3n2)c2c1OCCO2)N1CCN(C2COC2)CC1 [Example 425]",
    "RESULT": "301 to 1000 nM"
  },
  {
    "COMPOUND": "COc1cc(S(C)(=O)=O)ccc1Nc1nc(NCC2CCC2)c2c(C(F)(F)F)c[nH]c2n1 [Example 198]",
    "RESULT": "301 to 1000 nM"
  },
  {
    "COMPOUND": "CNc1nc(Nc2ccc(S(=O)(=O)N3CCOCC3)cc2OC)nc2[nH]cc(C#N)c12 [Example 62]",
    "RESULT": "301 to 1000 nM"
  },
  {
    "COMPOUND": "COc1cc(P(C)(C)=O)ccc1Nc1nc(NC2CCCCC2)c2c(C#N)c[nH]c2n1 [Example 117]",
    "RESULT": "301 to 1000 nM"
  },
  {
    "COMPOUND": "O=C(c1ccc(Nc2nc(NC3CCCCC3)c3cc[nH]c3n2)c2c1OCCO2)N1CCOCC1 [Example 49, 2,2,2-trifluoroacetate]",
    "RESULT": "301 to 1000 nM"
  },
  {
    "COMPOUND": "COc1cc(S(=O)(=O)N2CCOCC2)ccc1Nc1nc(NCC2CCC2)c2c(C(F)(F)F)c[nH]c2n1 [Example 200]",
    "RESULT": "301 to 1000 nM"
  },
  {
    "COMPOUND": "CCCNc1nc(Nc2ccc(C(=O)N3CCC(N4CCOCC4)CC3)c3c2OCCO3)nc2[nH]cc(C(F)(F)F)c12 [Example 364]",
    "RESULT": "< 100 nM"
  },
  {
    "COMPOUND": "CNc1nc(Nc2cc(F)c(S(=O)(=O)N3CCC(N4CCOCC4)CC3)cc2OC)nc2[nH]cc(C(F)(F)F)c12 [Example 231]",
    "RESULT": "< 100 nM"
  },
  {
    "COMPOUND": "CCCCNc1nc(Nc2ccc(C(=O)N3CCC(N4CCOCC4)CC3)c3c2OCC3)nc2[nH]cc(C(F)(F)F)c12 [Example 466]",
    "RESULT": "301 to 1000 nM"
  },
  {
    "COMPOUND": "CNc1nc(Nc2ccc(C(=O)N3CCN(C4COC4)CC3)c3c2OCCO3)nc2[nH]cc(C(F)(F)F)c12 [Example 397]",
    "RESULT": "< 100 nM"
  },
  {
    "COMPOUND": "COc1cc(S(C)(=O)=O)ccc1Nc1nc(NCC2CCC2)c2cc[nH]c2n1 [Example 39, 2,2,2-trifluoroacetate]",
    "RESULT": "301 to 1000 nM"
  },
  {
    "COMPOUND": "CCNc1nc(Nc2ccc(S(=O)(=O)N3CCC(N4CCOCC4)CC3)cc2OC)nc2[nH]ccc12 [Example 6, 2,2,2-trifluoroacetate]",
    "RESULT": "301 to 1000 nM"
  }
]
